This collection of values is drawn from ChEMBL document CHEMBL1152415.

Tested on: CCRF-CEM
test_description: Cross-resistance, IC50 for human taxol-resistant CCRF-CEM cells to IC50 for human CCRF-CEM cells
Type: functional
measured_parameter: Ratio IC50
Give bare numbers.

Solved entries (count: 3):
1) CCc1c(COC(=O)NC)c(COC(=O)NC)c2n1-c1ccccc1C2 ... 1.2
2) CNC(=O)OCc1c(COC(=O)NC)c(-c2ccc(F)c(F)c2)n2c1Cc1ccccc1-2 ... 0.97
3) CCc1c(CO)c(CO)c2n1-c1ccccc1C2 ... 0.39

Respectfully, I request Ratio IC50 for each entry included below.
1. OCc1c(CO)c(-c2ccccc2)n2c1Cc1ccccc1-2
2. CC(=O)O[C@H]1C(=O)[C@@]2(C)[C@H]([C@H](OC(=O)c3ccccc3)[C@]3(O)C[C@H](OC(=O)[C@H](O)[C@@H](NC(=O)c4ccccc4)c4ccccc4)C(C)=C1C3(C)C)[C@]1(OC(C)=O)CO[C@@H]1C[C@@H]2O

1. 0.9
2. 1000

Batch: Ratio IC50 for all items listed.
1. COc1cc(-c2c(CO)c(CO)c3n2-c2ccccc2C3)cc(OC)c1OC
2. COc1ccc(-c2c(CO)c(CO)c3n2-c2ccc(OC)cc2C3)cc1
3. CNC(=O)OCc1c(COC(=O)NC)c(-c2ccc(OC)cc2)n2c1Cc1ccccc1-2

1. 0.52
2. 0.53
3. 1.4

Quick one: give measured Ratio IC50 for CNC(=O)OCc1c(COC(=O)NC)c(-c2ccccc2)n2c1Cc1ccccc1-2 4.7

* * *

System: CCRF-CEM
test_description: Cytotoxicity against human vinblastine-resistant CCRF-CEM cells after 72 hrs by XTT assay
Format: functional, cell-based
Exercise: for every item that follows, state its recorded IC50.
Give bare numbers, in nM.

1) CNC(=O)OCc1c(COC(=O)NC)c(-c2ccccc2)n2c1Cc1ccccc1-2 ... 550

Parameters: items (list). Returns: IC50 for each item.
1. CNC(=O)OCc1c(COC(=O)NC)c(-c2ccc(F)cc2)n2c1Cc1ccccc1-2
2. OCc1c(CO)c(-c2ccc(F)cc2)n2c1Cc1ccccc1-2
3. CNC(=O)OCc1c(COC(=O)NC)c(-c2ccc(OC)cc2)n2c1Cc1ccccc1-2
4. CNC(=O)OCc1c(COC(=O)NC)c(-c2ccc(OC)c(OC)c2)n2c1Cc1ccccc1-2
5. OCc1c(CO)c(-c2ccc(Cl)cc2)n2c1Cc1ccccc1-2
6. CNC(=O)OCc1c(COC(=O)NC)c(-c2ccc(F)c(F)c2)n2c1Cc1ccccc1-2
7. CCc1c(CO)c(CO)c2n1-c1ccccc1C2

1: 280; 2: 11000; 3: 63; 4: 500; 5: 4500; 6: 650; 7: 230

Below are some compounds; for each one, tell me its IC50.
1. OCc1c(CO)c(-c2ccccc2)n2c1Cc1ccccc1-2
2. CCc1c(COC(=O)NC)c(COC(=O)NC)c2n1-c1ccccc1C2
3. CNC(=O)OCc1c(COC(=O)NC)c(-c2ccc(OC)cc2)n2c1Cc1cc(OC)ccc1-2

[250, 100, 98]

Could you report IC50 for every entry in the following list?
1. CC(=O)O[C@H]1C(=O)[C@@]2(C)[C@H]([C@H](OC(=O)c3ccccc3)[C@]3(O)C[C@H](OC(=O)[C@H](O)[C@@H](NC(=O)c4ccccc4)c4ccccc4)C(C)=C1C3(C)C)[C@]1(OC(C)=O)CO[C@@H]1C[C@@H]2O
2. COc1ccc(-c2c(CO)c(CO)c3n2-c2ccccc2C3)cc1
3. COc1ccc(-c2c(CO)c(CO)c3n2-c2ccc(OC)cc2C3)cc1
4. Cc1c(CO)c(CO)c2n1-c1ccccc1C2

[400, 1600, 140, 67]
